Data origin, for the record: paper PMC12024397

# Test system: S. aureus strain 4-145
# run parameters: broth microdilution, triplicate; isolate 4-145, no resistance profile listed
Non-standard residues stand in square brackets, D forms with d. Residues, ends and D or L forms follow the SMILES beside them. *: point of attachment. Tetradecanoyl(3R-OH) = CCCCCCCCCCC[C@@H](O)CC(=O)*; Tetradecanoyl(3S-OH) = CCCCCCCCCCC[C@H](O)CC(=O)*
Measured MIC, listed per entry.
Please report the result as a number followed by the unit.

Below, each entry is followed by its recorded MIC result.
Any idea what its MIC is? The molecule is CCCCCCCCCCC[C@H](O)CC(=O)N[C@@H](Cc1c[nH]c2ccccc12)C(=O)N[C@@H](CO)C(=O)N[C@H](Cc1c[nH]c2ccccc12)C(=O)N[C@@H](Cc1ccccc1)C(=O)N[C@@H](C(=O)N[C@@H](C)C(=O)N[C@H](C(=O)O)C(C)C)[C@H](C)O [13S] ({Tetradecanoyl(3S-OH)}-WS[dW]F[dT]AV-OH) 32 µg/mL

How about CCCCCCCCCCC[C@H](O)CC(=O)N[C@@H](Cc1c[nH]c2ccccc12)C(=O)N[C@@H](CO)C(=O)N[C@H](Cc1c[nH]c2ccccc12)C(=O)N[C@@H](Cc1ccccc1)C(=O)N[C@@H](C(=O)N[C@H](C(=O)N[C@H](C(=O)O)C(C)C)C(C)C)[C@H](C)O [12S] ({Tetradecanoyl(3S-OH)}-WS[dW]F[dT]VV-OH) ? 32 µg/mL

How about CCCCCCCCCCC[C@@H](O)CC(=O)N[C@@H](Cc1c[nH]c2ccccc12)C(=O)N[C@@H](CO)C(=O)N[C@H](Cc1c[nH]c2ccccc12)C(=O)N[C@@H](Cc1ccccc1)C(=O)N[C@@H](C(=O)N[C@H](C(=O)N[C@H](C(=O)O)C(C)C)C(C)C)[C@H](C)O [12R] ({Tetradecanoyl(3R-OH)}-WS[dW]F[dT]VV-OH) ? 16 µg/mL

Here's the next entry for you.
Any idea what its MIC is? The molecule is CCCCCCCCCCC[C@@H](O)CC(=O)N[C@@H](Cc1c[nH]c2ccccc12)C(=O)N[C@@H](CO)C(=O)N[C@H](Cc1c[nH]c2ccccc12)C(=O)N[C@@H](Cc1ccccc1)C(=O)N[C@@H](C(=O)N[C@@H](C)C(=O)N[C@H](C(=O)O)C(C)C)[C@H](C)O [13R] ({Tetradecanoyl(3R-OH)}-WS[dW]F[dT]AV-OH) 16 µg/mL

====

Measured MIC, listed per entry.
# System: S. aureus strain 4-157
# run parameters: broth microdilution, triplicate; isolate 4-157, no resistance profile listed
Non-standard residues stand in square brackets, D forms with d. Residues, ends and D or L forms follow the SMILES beside them. *: point of attachment. Tetradecanoyl(3R-OH) = CCCCCCCCCCC[C@@H](O)CC(=O)*; Tetradecanoyl(3S-OH) = CCCCCCCCCCC[C@H](O)CC(=O)*
// note: answer is a bare numeric in µg/mL

Below, each entry is followed by its recorded MIC result.
Requested read-out MIC, target or system S. aureus strain 4-157, entry CCCCCCCCCCC[C@@H](O)CC(=O)N[C@@H](Cc1c[nH]c2ccccc12)C(=O)N[C@@H](CO)C(=O)N[C@H](Cc1c[nH]c2ccccc12)C(=O)N[C@@H](Cc1ccccc1)C(=O)N[C@@H](C(=O)N[C@@H](C)C(=O)N[C@H](C(=O)O)C(C)C)[C@H](C)O [13R] ({Tetradecanoyl(3R-OH)}-WS[dW]F[dT]AV-OH) 32

How about CCCCCCCCCCC[C@H](O)CC(=O)N[C@@H](Cc1c[nH]c2ccccc12)C(=O)N[C@@H](CO)C(=O)N[C@H](Cc1c[nH]c2ccccc12)C(=O)N[C@@H](Cc1ccccc1)C(=O)N[C@@H](C(=O)N[C@H](C(=O)N[C@H](C(=O)O)C(C)C)C(C)C)[C@H](C)O [12S] ({Tetradecanoyl(3S-OH)}-WS[dW]F[dT]VV-OH) ? 16

---
Requested read-out MIC, target or system S. aureus strain 4-157, entry CCCCCCCCCCC[C@@H](O)CC(=O)N[C@@H](Cc1c[nH]c2ccccc12)C(=O)N[C@@H](CO)C(=O)N[C@H](Cc1c[nH]c2ccccc12)C(=O)N[C@@H](Cc1ccccc1)C(=O)N[C@@H](C(=O)N[C@H](C(=O)N[C@H](C(=O)O)C(C)C)C(C)C)[C@H](C)O [12R] ({Tetradecanoyl(3R-OH)}-WS[dW]F[dT]VV-OH) 16

How about CCCCCCCCCCC[C@H](O)CC(=O)N[C@@H](Cc1c[nH]c2ccccc12)C(=O)N[C@@H](CO)C(=O)N[C@H](Cc1c[nH]c2ccccc12)C(=O)N[C@@H](Cc1ccccc1)C(=O)N[C@@H](C(=O)N[C@@H](C)C(=O)N[C@H](C(=O)O)C(C)C)[C@H](C)O [13S] ({Tetradecanoyl(3S-OH)}-WS[dW]F[dT]AV-OH) ? 32
